Reference source: ChEMBL document CHEMBL1157527

# Tested on: Candida albicans
# experiment: Antifungal activity against Candida albicans; note: unit not given here
# Format: functional
parameter.measured: p(1/MIC)

                                   compound  reported_measurement
0  CCCCCCCCCCC[N+](C)(C)[BH-](F)C#N (stereo not given)                 1.806
1  CCCCCCCCCCCOP(=O)(OC)OC(Cn1cncn1)(Cn1cncn1)c1ccc(F)cc1F (stereo not given)                 3.138
2  CCCCCCC(C)(O)C[N+](C)(C)[BH2-]C#N (stereo not given)                 3.344
3  C[N+](C)(CCCCCCCCCC[N+](C)(C)[B-](Br)(Br)C#N)[B-](Br)(Br)C#N                 2.017
4  C[N+](C)([BH2-]C#N)CCCCCCCCCCCCCC[N+](C)(C)[BH2-]C#N                 1.634
5  C=CCCCCCCCCCOP(=O)(OCCC#N)OC(Cn1cncn1)(Cn1cncn1)c1ccc(F)cc1F (stereo not given)                 2.314
6  O=C(Nc1ccc2oc(-c3ccc(F)cc3)nc2c1)OCc1ccc(Cl)cc1                 1.806

A = CCCCCCCCCCCOP(=O)(OCCC#N)OC(Cn1cncn1)(Cn1cncn1)c1ccc(F)cc1F (stereo not given)
B = O=C(Nc1ccc2oc(-c3ccccc3)nc2c1)OCc1ccccc1
C = Cc1c(Cn2ccnc2)c2ccccc2n1Cc1ccc(Cl)cc1
Query string: Place the items in sequence of falling p(1/MIC). Put the labels in the requested order and list them out.
Result string: A, B, C

###

# Test system: Candida albicans
# experiment: Antifungal activity against Candida albicans; note: unit not given here
# Assay type: functional
parameter.measured: p(1/MIC)

Below are worked cases with known answers.
>>> df
                                  structure  reported_measurement
0  C=CCCCCCCCCCOP(=O)(O)OC(Cn1cncn1)(Cn1cncn1)c1ccc(F)cc1F                 3.445
1  CCCCCCCCCCCOP(=O)(O)OC(Cn1cncn1)(Cn1cncn1)c1ccc(F)cc1F                 3.148
2  O=C(Nc1ccc2oc(-c3ccc(F)cc3)nc2c1)OCc1ccccc1                 1.785
3  O=C(Nc1ccc2oc(-c3ccccc3)nc2c1)OCc1ccc(Cl)cc1                 1.544

I = CCc1ccc(-c2nc3cc(NC(=O)OCc4ccccc4)ccc3o2)cc1
II = CC(=O)Oc1ccccc1C(=O)OC(Cn1cncn1)(Cn1cncn1)c1ccc(F)cc1F
Query string: Which item exceeds the other in p(1/MIC), I or II ? Identify your selection by its label.
Result string: II
(II: 3.413, I: 1.477)
